Where do these numbers come from? They come from PubChem BioAssay (NCI).

# METHOD_SUMMARY: NCI Yeast Anticancer Drug Screen. Data for the mlh1 rad18 strain (AID 175)
# CONDITIONS_USED: S. cerevisiae mlh1 rad18 strain growth inhibition; at 50.0 µM; hits give high values
# Experimental: Growth inhibition of yeast strains with defined genetic alterations is measured as a screen for potential anti-cancer activity. Selected strains with alterations in DNA damage repair or cell cycle control were exposed to compounds and growth inhibition was measured relative to vehicle treated controls. The strain used in this assay is mlh1 rad18
Compounds without any hit were thinned out: in the full panel of roughly 79,000, 15% have a hit.
PROPERTY_MEASURED: growth inhibition (%)
# unit: % | format: bare number

Observe how each entry below is paired with its result.
{"COMPOUND": "Cc1ccc2c(c1O)C(=O)c1ccccc1C2=O", "growth inhibition / %": 46.5}
{"COMPOUND": "COc1ccc(CCc2cc(OC)c(O)c(OC)c2)cc1", "growth inhibition / %": 41}
{"COMPOUND": "OCC1OC(n2cnc3c([Se]Cc4ccccn4)ncnc32)C(O)C1O (stereo unspecified)", "growth inhibition / %": 7.5}
{"COMPOUND": "COc1cc(O)c2c(c1)C(=O)c1cc3c(c(O)c1C2=O)CC(OC)C(C)(O)C3O (stereo unspecified)", "growth inhibition / %": 91.2}
{"COMPOUND": "Cc1ccc(C(C)C)cc1O", "growth inhibition / %": 32.4}
{"COMPOUND": "COc1ccc(C=Nc2c(O)ccc3c2CCCC3)cc1OC", "growth inhibition / %": 14.9}

Request: Quick one: growth inhibition of O=C(Nc1cccc2ccccc12)c1ccc(Cl)c(Cl)c1 ?
Response: 72.3

Request: Param item = CC12CCCC=C1C(C)(C)C(O)CC2 (stereo unspecified) ; retrieve measured growth inhibition.
Response: 0.8

Request: For the compound shown here, CCN(CC)CCC1(C#N)Cc2ccccc2N(CC)c2ccccc21 (stereo unspecified) , give the reported growth inhibition.
Response: -19.6

Request: Name the recorded growth inhibition for C=COCCC(C(=O)OCC)C(=O)OCC .
Response: 13.1

Request: Given CSc1nc2nc[nH]c(=O)c2[nH]1 , state its recorded growth inhibition.
Response: -2.5

----------
# METHOD_SUMMARY: NCI Yeast Anticancer Drug Screen. Data for the rad50 strain (AID 155);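 also: 0% = growth of vehicle-only cultures of the same strain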
# CONDITIONS_USED: S. cerevisiae rad50 strain growth inhibition; at 50.0 µM
Compounds without any hit were thinned out: in the full panel of roughly 79,000, 15% have a hit. Calls of active or inactive are those of the source. No stated cut-off is given here; in the data, active means growth inhibition above about 70%; inactive means the rest.
Use one of these outcomes when replying: Y for active, N for inactive

{"MOLECULE": "CC(=O)N1CCC(=O)/C(=C/c2ccccc2)C1", "GROUP": "N"}
{"MOLECULE": "CCCN(CCC)CC(O)c1cccc2c1cc(Cl)c1ccccc12 (stereo unspecified)", "GROUP": "Y"}
{"MOLECULE": "CCOC(=O)C(NC(=O)Cc1ccccc1)C(=O)O (stereo unspecified)", "GROUP": "N"}

Request: What classification did C=C(C)Cn1cnc2c1c(=O)n(C)c(=O)n2C end up with in this test?
Response: N

Request: Recorded test call requested for COc1cccc(C2OC(N)=C(O)C2=O)c1 (stereo unspecified)
Response: N

Request: Query: recorded result category for ON=C1CCCCC1 in this test
Response: N

Request: Given CC(=O)NC(c1ccc(F)cc1)(c1ccc(F)cc1)C(F)(F)F , state the outcome it received in this test.
Response: N

Request: How did this test come out for CCOP(=O)(OCC)OC1CC(n2cnc3c(N(CC)CC)ncnc32)OC1CO[Si](C)(C)C(C)(C)C (stereo unspecified) ?
Response: N

Request: Query: recorded result category for O=C1NCCS(=O)(=O)N2CCC[C@@H]12 in this test
Response: N

Request: How did this test come out for O=c1[nH]c2ccccc2c(=O)n2cccc12 ?
Response: N

Request: Could you please tell me the result logged for C=C(Cl)C(=C)CCC(Cl)C(C)(C)Cl (stereo unspecified) in this assay?
Response: N

Request: Look up the recorded call for O=C(O)[C@@H]1[C@@H]2C[C@@H]3[C@H](OC(=O)[C@@H]31)[C@@H]2O in this test.
Response: N

Request: Tell me the assay call for CCOC(=O)C(C#N)C(=O)c1ccccc1-c1ccccc1[N+](=O)[O-] (stereo unspecified) please.
Response: N

Request: Which outcome did this test record for the molecule O=C(O)c1c[n+]([O-])ccc1Cl ?
Response: N

Request: I would be grateful if you could indicate the recorded call for NC(Cc1ccc(O)cc1)C(=O)OCc1ccccc1 (stereo unspecified) .
Response: N
